# MEASUREMENT TARGET: Human Cot (Homo sapiens (Human))
# PROTOCOL: High Throughput Cot Biochemical Assay
# CONDITION SET: IC50 HTRF, Cot HTRF (TR-FRET) biochemical assay
Checkbox rule: IC50 lower than 5 nM = met; IC50 not lower than 5 nM = not met.

Solved entries:
- MOLECULE: "N#Cc1cnc2c(Cl)cc(N[C@@H](c3cccnc3)c3cn(C4COC4)nn3)cc2c1NC1CCOCC1"
  MEASUREMENT TARGET: "Human Cot (Homo sapiens (Human))"
  CLASS NAME: "not met"
- MOLECULE: "Cc1ncccc1[C@H](Nc1cc(Cl)c2ncc(C#N)c(NCC(C)(C)C)c2c1)c1cn(C2CC2)nn1"
  MEASUREMENT TARGET: "Human Cot (Homo sapiens (Human))"
  CLASS NAME: "met"

Please look at the following molecule next.
Task: is_below(IC50, 5 nM) for `Cn1ccc2c([C@H](Nc3cc(Cl)c4ncc(C#N)c(NCC(C)(C)C)c4c3)c3cn(C4(C(F)(F)F)CC4)nn3)cccc2c1=O` ?
Result: met

====

# Tested on: TNFα
# PROTOCOL: Cot Monocyte TNFα Cell Based Assay
# CONDITION SET: Homo sapiens, Monocyte, read-out: EC50 TNF, LPS-stimulated human monocytes, TNFα TR-FRET
QUANTITY KIND: EC50 (nM)
Unit nM implied. Number only.

Solved entries:
- STRUCTURE STRING: "Cc1ncsc1[C@H](Nc1cc(C#N)c2ncc(C#N)c(NCC(C)(C)C)c2c1)c1cn(C2(C3CC3)CC2)nn1"
  UNIT LABEL: "nM"
  MEAS VALUE: 36
- STRUCTURE STRING: "Cn1ccc2c([C@H](Nc3cc(C#N)c4ncc(C#N)c(NCC(C)(C)C)c4c3)c3cn(C4(C)CC4)nn3)cccc2c1=O"
  UNIT LABEL: "nM"
  MEAS VALUE: 13
- STRUCTURE STRING: "CC[C@@H](Nc1c(C#N)cnc2c(Cl)cc(N[C@@H](c3ccc(F)nc3C)c3nnn(C4(C(F)(F)F)CC4)c3F)cc12)c1ccccc1"
  UNIT LABEL: "nM"
  MEAS VALUE: 260
- STRUCTURE STRING: "Cn1cccc([C@H](Nc2cc(Cl)c3ncc(C#N)c(NCC(C)(C)C)c3c2)c2cn(C3(C(F)(F)F)CC3)nn2)c1=O"
  UNIT LABEL: "nM"
  MEAS VALUE: 287
- STRUCTURE STRING: "Cc1nc(F)ccc1[C@H](Nc1cc(C#N)c2ncc(C#N)c(NCC(C)(C)C(F)(F)F)c2c1)c1nnn([C@@H](C)CF)c1F"
  UNIT LABEL: "nM"
  MEAS VALUE: 44

Turning now to a further molecule:
Task: What value of measured EC50 is listed for `CC(=O)c1cc(N[C@H](c2cn(C3(C(F)F)CC3)nn2)c2ccc(F)nc2C)cc2c(NCC(C)(C)C)c(C#N)cnc12` ?
Result: 20

====

# MEASUREMENT TARGET: Human Cot (Homo sapiens (Human), UniProt P41279)
# Sequence (P41279 30-397): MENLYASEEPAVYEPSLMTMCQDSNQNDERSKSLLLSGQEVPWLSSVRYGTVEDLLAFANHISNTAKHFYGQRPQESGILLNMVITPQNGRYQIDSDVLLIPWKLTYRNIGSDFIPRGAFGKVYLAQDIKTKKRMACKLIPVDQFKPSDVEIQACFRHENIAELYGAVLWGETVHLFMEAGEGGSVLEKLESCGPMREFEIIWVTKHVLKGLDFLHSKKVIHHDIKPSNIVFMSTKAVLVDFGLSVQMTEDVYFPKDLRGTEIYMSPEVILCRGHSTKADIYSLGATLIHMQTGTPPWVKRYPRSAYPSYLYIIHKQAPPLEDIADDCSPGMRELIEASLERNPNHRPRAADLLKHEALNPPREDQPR
# PROTOCOL: High Throughput Cot Biochemical Assay
# CONDITION SET: IC50 HTRF, Cot HTRF (TR-FRET) biochemical assay
Recorded log10 of IC50 for the following molecules
Heads up: the numbers are on a log10 scale; they represent IC50 in nM.

Task: What value of measured log10 of IC50 is listed for `N#Cc1cnc2c(Cl)cc(N[C@H](c3cn(C4CCNCC4)nn3)c3cccs3)cc2c1Nc1ccc(F)c(Cl)c1` ?
Result: 1.00

Task: What value of measured log10 of IC50 is listed for `Cc1nc(F)ccc1[C@H](Nc1cc(Cl)c2ncc(C#N)c(NCC(C)(C)S(C)(=O)=O)c2c1)c1cn(C2(C(F)(F)F)CC2)nn1` ?
Result: 1.63

Task: What value of measured log10 of IC50 is listed for `CC(C)n1cc([C@@H](Nc2cc(Cl)c3ncc(C#N)c(Nc4ccc(F)c(Cl)c4)c3c2)C2=CCOCC2)nn1` ?
Result: 0.60

Task: What value of measured log10 of IC50 is listed for `Cc1ncsc1[C@H](Nc1cc(Cl)c2ncc(C#N)c(N[C@H](C)c3ccccc3)c2c1)c1cn(C2CCN(C(C)(C)C)CC2)nn1` ?
Result: 1.20

Task: What value of measured log10 of IC50 is listed for `CCN1Cc2ccc([C@H](Nc3cc(Cl)c4ncc(C#N)c(Nc5ccc(F)c(Cl)c5)c4c3)c3cn(C4CCN(C(C)(C)C)CC4)nn3)cc2C1` ?
Result: 1.86

Task: What value of measured log10 of IC50 is listed for `N#Cc1cnc2c(Cl)cc(N[C@H](c3c[nH]nn3)c3csc4c3CCNC4)cc2c1Nc1ccc(F)c(Cl)c1` ?
Result: 0.85

Task: What value of measured log10 of IC50 is listed for `CC(C)(C)CNc1c(C#N)cnc2c(C#N)cc(N[C@H](c3cn(C4(C(F)(F)F)CC4)nn3)c3ccc(C#N)c4ncccc34)cc12` ?
Result: 0.70

Task: What value of measured log10 of IC50 is listed for `Cn1ccc2c([C@H](Nc3cc(Cl)c4ncc(C#N)c(NCC(C)(C)CO)c4c3)c3cn(C45CC(C4)C5)nn3)cccc2c1=O` ?
Result: 0.78

Task: What value of measured log10 of IC50 is listed for `Cc1ncccc1[C@H](Nc1cc(Cl)c2ncc(C#N)c(Nc3ccc(F)c(Cl)c3)c2c1)c1cn(C(C)C)nn1` ?
Result: 0.48

Task: What value of measured log10 of IC50 is listed for `[2H][C@](Nc1cc(Cl)c2ncc(C#N)c(NCC(C)(C)C)c2c1)(c1ccc(F)nc1)c1cn(CC(=O)O)nn1` ?
Result: 0.60

Task: What value of measured log10 of IC50 is listed for `Cn1ncc2c([C@H](Nc3cc(C#N)c4ncc(C#N)c(NCC(C)(C)C)c4c3)c3cn(C4(C)CC4)nn3)cccc21` ?
Result: 0.30

Task: What value of measured log10 of IC50 is listed for `CC(C)(C)CNc1c(C#N)cnc2c(Cl)cc(N[C@H](c3cn(C4(C(F)(F)F)CC4)nn3)c3cnn4ncccc34)cc12` ?
Result: 1.49

Task: What value of measured log10 of IC50 is listed for `Cc1nc(F)ccc1[C@H](Nc1cc(Cl)c2ncc(C#N)c(NCC(C)(C)C)c2c1)c1cn(C2(C(N)=O)CCC2)nn1` ?
Result: 0.00

Task: What value of measured log10 of IC50 is listed for `CCN1CCC(n2cc([C@@H](Nc3cc(Cl)c4ncc(C#N)c(Nc5ccc(F)c(Cl)c5)c4c3)c3cc(Cl)cs3)nn2)CC1` ?
Result: 0.85

Task: What value of measured log10 of IC50 is listed for `CC(C)(C)CNc1c(C#N)cnc2c(Cl)cc(N[C@H](c3cn(C4(C(N)=O)CC4)nn3)c3cccc4ncsc34)cc12` ?
Result: 0.30

Task: What value of measured log10 of IC50 is listed for `CC(C)(C)CNc1c(C#N)cnc2c(C#N)cc(N[C@H](c3cn(C4(C)CC4)nn3)c3cccc4ncccc34)cc12` ?
Result: 0.30

Task: What value of measured log10 of IC50 is listed for `Cc1ncsc1[C@H](Nc1cc(Cl)c2ncc(C#N)c(Nc3ccc(Cl)c(Cl)c3F)c2c1)c1cn(C2CCN(C(C)(C)C)CC2)nn1` ?
Result: 0.95

Task: What value of measured log10 of IC50 is listed for `Cn1cc([C@@H](Nc2cc(Cl)c3ncc(C#N)c(NCC(C)(C)C)c3c2)c2cccc3c(=O)n(C)ccc23)nn1` ?
Result: 0.70

Task: What value of measured log10 of IC50 is listed for `CC[C@@H](Nc1c(C#N)cnc2c(Cl)cc(N[C@@H](c3cccnc3)c3cn(CCCN4CCCC4)nn3)cc12)c1ccccc1` ?
Result: 0.30

Task: What value of measured log10 of IC50 is listed for `Cn1nccc1[C@H](Nc1cc(Cl)c2ncc(C#N)c(Nc3ccc(Cl)c(Cl)c3F)c2c1)c1c[nH]nn1` ?
Result: 1.58

Task: What value of measured log10 of IC50 is listed for `N#Cc1cnc2c(Cl)cc(N[C@H](c3cn(C4COC4)nn3)c3csc4c3CCNC4)cc2c1Nc1ccc(F)c(Cl)c1` ?
Result: 0.48

Task: What value of measured log10 of IC50 is listed for `Cc1nc(F)ccc1[C@H](Nc1cc(Cl)c2ncc(C#N)c(NCC(C)(C)C)c2c1)c1cn(C2(C(F)F)CC2)nn1` ?
Result: 0.30

Task: What value of measured log10 of IC50 is listed for `[2H]C([2H])(Nc1c(C#N)cnc2c(Cl)cc(N[C@@]([2H])(c3ccc(F)nc3)c3cn(C4CC4)nn3)cc12)C(C)(C)C` ?
Result: 0.30

Task: What value of measured log10 of IC50 is listed for `COCCn1cc([C@@H](Nc2cc(Cl)c3ncc(C#N)c(Nc4ccc(F)c(Cl)c4)c3c2)c2cc(C#N)cs2)nn1` ?
Result: 1.20

Task: What value of measured log10 of IC50 is listed for `CC(C)(C)CNc1c(C#N)cnc2c(Cl)cc(N[C@H](c3cn(C4CC4)nn3)c3cccn4cncc34)cc12` ?
Result: 0.48

Task: What value of measured log10 of IC50 is listed for [2H]C(Nc1cc(Cl)c2ncc(C#N)c(N[C@H](CCC#N)c3ccccc3)c2c1)(c1ccc(F)nc1)c1cn(C2CC2)nn1 (some centres unmarked) ?
Result: 2.72
